Taken from paper PMC3161826.

Target: 18-kDa translocator protein (TSPO) (Homo sapiens)
Sequence (P30536 2-169 limits assumed): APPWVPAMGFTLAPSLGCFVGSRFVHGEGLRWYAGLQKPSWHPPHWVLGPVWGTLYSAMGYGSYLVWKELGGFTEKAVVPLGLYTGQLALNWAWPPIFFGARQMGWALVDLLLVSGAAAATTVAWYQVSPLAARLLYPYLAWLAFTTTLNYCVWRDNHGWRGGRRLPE
Experiment: Competition binding assay with 3H-PK11195 in human brain tissue membranes
Settings: read-out: Ki, LABs; low-affinity binders; brain tissue donors B1–B15; mean ± SEM
Here the recorded pKi is given for each entry.
Lab note — pKi values are minus log10 of concentrations in M.

Worked cases, answers included:
{"compound": "COc1ccc(OC)c(CN(C(C)=O)c2cc(F)ccc2Oc2ccccc2)c1 [DAA1106]", "measured": 7.88}
{"compound": "COc1ccc(OC)c(CN(C(=O)CF)c2ccccc2Oc2ccccc2)c1 [PBR06]", "measured": 6.83}

Below: the item to evaluate.
Name the reported pKi value associated with the compound CCN(CC)C(=O)Cc1c(-c2ccc(OCCCF)cc2)nc2ccc(Cl)cn12 [PBR111] 7.21
